# credit: patent US20230172920A1

# PROTOCOL DETAILS: clinical
# Set-up: species or system human
# EXPERIMENTAL SETUP: human, in vivo, po, 800 mg
VALUE TYPE: AUC(0-t) (µg·h/mL)
State just the number; it will be interpreted in µg·h/mL.

Recorded result, `CNC(=O)c1cc(Oc2ccc3nc(N[C@@H]4CCCC[C@H]4O)sc3c2)ccn1` , AUC(0-t): 413

====

# PROTOCOL DETAILS: clinical
# Set-up: species or system human
# EXPERIMENTAL SETUP: human, in vivo, po, 300 mg
VALUE TYPE: Cmax (ng/mL)
Lab book: enter the figure in ng/mL, no units written.

Cmax for `CNC(=O)c1cc(Oc2ccc3nc(N[C@@H]4CCCC[C@H]4O)sc3c2)ccn1` is 13900

====

# PROTOCOL DETAILS: Blood and spinal cord exposure, 8-week SOD1G93A efficacy study
# Format: in vivo, SOD1G93A mouse
# EXPERIMENTAL SETUP: SOD1G93A, mouse, spinal cord relative to blood; across dose groups, 3 hours post-dose; read-out: spinal cord exposure ratios (relative to blood)
VALUE TYPE: Kp at 3 h

Field Kp at 3 h (entry `CNC(=O)c1cc(Oc2ccc3nc(N[C@@H]4CCCC[C@H]4O)sc3c2)ccn1` ) reads ~0.4

====

# PROTOCOL DETAILS: Blood and spinal cord exposure, 8-week SOD1G93A efficacy study
# Assay type: in vivo, SOD1G93A mouse
# EXPERIMENTAL SETUP: SOD1G93A, mouse, spinal cord relative to blood; 65 mg/kg q.d., 3 h post-dose; read-out: Spinal Cord/Blood ratio
VALUE TYPE: Kp at 3 h
No unit in the answer, please; the number alone is enough.

Measured Kp at 3 h of `CNC(=O)c1cc(Oc2ccc3nc(N[C@@H]4CCCC[C@H]4O)sc3c2)ccn1` : 0.42

====

# PROTOCOL DETAILS: clinical
# Design: species or system human
# EXPERIMENTAL SETUP: human, in vivo, po, 150 mg
VALUE TYPE: AUC(0-t) (µg·h/mL)
# value in µg·h/mL; strip the unit string

For record `CNC(=O)c1cc(Oc2ccc3nc(N[C@@H]4CCCC[C@H]4O)sc3c2)ccn1` the listed AUC(0-t) is 102

====

# PROTOCOL DETAILS: Blood and spinal cord exposure, 8-week SOD1G93A efficacy study
# Type: in vivo, SOD1G93A mouse
# EXPERIMENTAL SETUP: SOD1G93A (transgenic ALS model), mouse, spinal cord relative to blood; 170 mg/kg CONT, 3 h post-dose; read-out: Spinal Cord/Blood ratio
VALUE TYPE: Kp at 3 h
Form field (numeric): enter value without unit.

The compound identified as `CNC(=O)c1cc(Oc2ccc3nc(N[C@@H]4CCCC[C@H]4O)sc3c2)ccn1` registered its Kp at 3 h at 0.42

====

# PROTOCOL DETAILS: Blood and spinal cord exposure, 8-week SOD1G93A efficacy study
# Format: in vivo, SOD1G93A mouse
# EXPERIMENTAL SETUP: SOD1G93A, mouse, blood, 170 mg/kg, 170 mg/kg INT (7 day ON/7 day OFF), 3 h post-dose; read-out: Blood conc.
VALUE TYPE: concentration at 3 h (µM)
Report the value in µM with no unit label.

Reported concentration at 3 h ( `CNC(=O)c1cc(Oc2ccc3nc(N[C@@H]4CCCC[C@H]4O)sc3c2)ccn1` ) = 50.4
